systemUnderTest: T1, Fibronectin ED-B protein (human fibronectin extra domain B, N-terminal His-tag) (human, UniProt P02751 1266-1356, biotinylated with sulfo-NHS-SS-biotin for biopanning, input-phage ELISA and SPR on the streptavidin chip)
T1 construct: domain: ED-B; Expressed in E. coli BL21 from pET28b; also called biotinylated-EDB; not shown: N-terminal His-tag from the pET28b vector
T1 sequence (P02751 1266-1356): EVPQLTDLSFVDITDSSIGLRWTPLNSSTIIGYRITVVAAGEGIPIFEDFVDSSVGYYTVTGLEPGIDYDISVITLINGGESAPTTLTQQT
experimentDescription: SPR, synthetic truncated peptide on ED-B
Readings of Kd for the listed binders
Numeric only. Scale: µM

1. GSWTWENGKWTWKGIIRLEQ [C-terminal region peptide derived from ED-B peptide 2 (monopodal, one target binding region removed)] = 12.8

Moving on to another binder below.
Please look up its Kd: HCSSAVGSWTWENGKWTWKG [N-terminal region peptide derived from ED-B peptide 2 (monopodal, one target binding region removed)]
592
